# TESTED TARGET: S1P3 (Homo sapiens, UniProt Q99500)
# Construct: expressed in transfected cells
# Sequence (Q99500 whole entry, species assumed): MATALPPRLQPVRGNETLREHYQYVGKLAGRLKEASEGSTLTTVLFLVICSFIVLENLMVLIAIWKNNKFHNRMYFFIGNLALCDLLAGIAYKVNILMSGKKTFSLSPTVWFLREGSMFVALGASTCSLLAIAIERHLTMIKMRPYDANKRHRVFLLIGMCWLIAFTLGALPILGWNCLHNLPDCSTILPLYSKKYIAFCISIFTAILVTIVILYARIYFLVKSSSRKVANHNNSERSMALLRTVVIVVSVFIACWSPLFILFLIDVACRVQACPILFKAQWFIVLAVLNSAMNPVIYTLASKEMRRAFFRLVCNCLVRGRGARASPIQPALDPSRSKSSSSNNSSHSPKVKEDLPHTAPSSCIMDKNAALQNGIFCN
# TEST DESCRIPTION: FLIPR calcium assay, cells expressing S1P3 and a G-protein
# Assay type: cell-based
# PROTOCOL CONDITIONS: fluo-4 calcium signal compared to sphingosine 1-phosphate; antagonist mode
Where a name gives a salt, the structure may show the parent alone.
Answer each item with its documented EC50.
Report the figure in nM without appending any unit label.

(Q) Complete the entry with EC50 for O=C(Nc1ccc(Cl)cn1)C(Sc1ccc(Cl)cc1)c1ccccc1 (stereo not shown)
(A) 160

(Q) Complete the entry with EC50 for O=C(Nc1ccc(Br)cn1)C(c1ccc(Cl)cc1)c1ccc(Cl)cc1
(A) 1720

(Q) Complete the entry with EC50 for O=C(Nc1ccc(Br)cn1)C(Sc1ccc(F)cc1)c1ccc(Cl)cc1 (stereo not shown) [Example 14, hydrochloride]
(A) 127

(Q) Complete the entry with EC50 for O=C(Nc1ccc(Br)cn1)C(Sc1cccc(Cl)c1)c1ccccc1 (stereo not shown) [Example 20, hydrochloride]
(A) 166

Every entry's value here was drawn from patent US20120088800A1.
